Reference for the values: paper PMC10683025

Experiment: Metabolic stability in liver microsomes
Type: in vitro ADME, Sprague-Dawley rat
Conditions: rat LM, +Cofactors, 45 min
Can you tell me Remaining Percentage for the items I'm about to list?
Form entry: value (%) — number only.

Request: Give the measured Remaining Percentage of COc1cc2ncnc(Nc3ccc(F)c(Cl)c3)c2cc1OCCON1CCOCC1 [Compound 6] .
Response: 17.98

Request: Give the measured Remaining Percentage of COc1cc2ncnc(Nc3cccc(Cl)c3F)c2cc1OCCON1CCOCC1 [Compound 7] .
Response: 8.49

Request: Give the measured Remaining Percentage of COc1cc2ncnc(Nc3cccc(Cl)c3F)c2cc1OCCON1CCN(C)CC1 [Compound 9] .
Response: 6.01

Request: Give the measured Remaining Percentage of COc1cc2ncnc(Nc3ccc(F)c(Cl)c3)c2cc1OCCON1CCN(C)CC1 [Compound 8] .
Response: 22.82

Request: Give the measured Remaining Percentage of COc1cc2ncnc(Nc3ccc(F)c(Cl)c3)c2cc1OCCCN1CCOCC1 [Gefitinib (1), Gefitinib, reference compound] .
Response: 25.25

* * *

Experiment: Pharmacokinetic study
Assay type: in vivo, BALB/c nude mice
Conditions: female, BALB/c nude, plasma; Mouse 3 mg/kg (IV)
quantity: clearance (mL/min/kg)
Form entry: value (mL/min/kg) — number only.

Request: Give the measured clearance of COc1cc2ncnc(Nc3cccc(Cl)c3F)c2cc1OCCON1CCN(C)CC1 [Compound 9] .
Response: 58.6

* * *

Can you tell me recovery at 2 h, 1 μM for the items I'm about to list?
Experiment: MDCKII-MDR1 permeability
Assay type: in vitro ADME, canine
Details: dog, MDCK-MDR1, MDCKII-MDR1; read-out: Recovery% (AP-BL)

Request: Give the measured recovery at 2 h, 1 μM of "COc1cc2ncnc(Nc3ccc(F)c(Cl)c3)c2cc1OCCON1CCOCC1" .
Response: 51.6%

Request: Give the measured recovery at 2 h, 1 μM of "COc1cc2ncnc(Nc3ccc(F)c(Cl)c3)c2cc1OCCON1CCN(C)CC1" .
Response: 58.6%

Request: Give the measured recovery at 2 h, 1 μM of COCCc1ccc(OCC(O)CNC(C)C)cc1 (stereo not drawn) [Metoprolol, reference compound] .
Response: 105%

Request: Give the measured recovery at 2 h, 1 μM of C[C@H]1O[C@@H](O[C@H]2[C@@H](O)C[C@H](O[C@H]3[C@@H](O)C[C@H](O[C@H]4CC[C@@]5(C)[C@H](CC[C@@H]6[C@@H]5C[C@@H](O)[C@]5(C)[C@@H](C7=CC(=O)OC7)CC[C@]65O)C4)O[C@@H]3C)O[C@@H]2C)C[C@H](O)[C@@H]1O [Digoxin, reference compound] .
Response: 98.8%

Request: Give the measured recovery at 2 h, 1 μM of "COc1cc2ncnc(Nc3cccc(Cl)c3F)c2cc1OCCON1CCOCC1" .
Response: 73.5%

Request: Give the measured recovery at 2 h, 1 μM of "COc1cc2ncnc(Nc3cccc(Cl)c3F)c2cc1OCCON1CCN(C)CC1" .
Response: 68.6%

* * *

Experiment: Plasma protein binding by equilibrium dialysis
Type: in vitro ADME
Details: Sprague-Dawley, rat, rat plasma
Can you tell me recovery at 6 h, 5 μM for the items I'm about to list?
Form entry: value (%) — number only.

Request: Give the measured recovery at 6 h, 5 μM of "COc1cc2ncnc(Nc3cccc(Cl)c3F)c2cc1OCCON1CCOCC1" .
Response: 110

Request: Give the measured recovery at 6 h, 5 μM of "COc1cc2ncnc(Nc3cccc(Cl)c3F)c2cc1OCCON1CCN(C)CC1" .
Response: 106

Request: Give the measured recovery at 6 h, 5 μM of COc1cc2ncnc(Nc3ccc(F)c(Cl)c3)c2cc1OCCCN1CCOCC1 [Gefitinib (1), Gefitinib, reference compound] .
Response: 105

* * *

Assay: Plasma stability
Format: in vitro ADME, human
Details: human plasma, 15 min
quantity: Remaining Percentages

Request: Give the measured Remaining Percentages of "COc1cc2ncnc(Nc3ccc(F)c(Cl)c3)c2cc1OCCON1CCOCC1" .
Response: 98.26%

Request: Give the measured Remaining Percentages of CC(C)[N+](C)(CCOC(=O)C1c2ccccc2Oc2ccccc21)C(C)C [Propantheline, reference compound] .
Response: 69.10%

Request: Give the measured Remaining Percentages of COc1cc2ncnc(Nc3ccc(F)c(Cl)c3)c2cc1OCCCN1CCOCC1 [Gefitinib (1), Gefitinib, reference compound] .
Response: 103.40%

Request: Give the measured Remaining Percentages of "COc1cc2ncnc(Nc3cccc(Cl)c3F)c2cc1OCCON1CCN(C)CC1" .
Response: 93.43%

Request: Give the measured Remaining Percentages of "COc1cc2ncnc(Nc3cccc(Cl)c3F)c2cc1OCCON1CCOCC1" .
Response: 100.68%

* * *

Test: Plasma protein binding by equilibrium dialysis
Assay type: in vitro ADME
Conditions: plasma; human, 5 μM; read-out: fu,plasma% / %Unbound (converted)
quantity: fraction unbound at 6 h, 5 μM
In your answer, state the number alone without any accompanying words.

Request: Give the measured fraction unbound at 6 h, 5 μM of COc1cc2ncnc(Nc3ccc(F)c(Cl)c3)c2cc1OCCCN1CCOCC1 [Gefitinib (1), Gefitinib, reference compound] .
Response: 0.0766

Request: Give the measured fraction unbound at 6 h, 5 μM of COc1cc2ncnc(Nc3cccc(Cl)c3F)c2cc1OCCON1CCOCC1 [Compound 7] .
Response: 0.0412

Request: Give the measured fraction unbound at 6 h, 5 μM of COc1cc2ncnc(Nc3cccc(Cl)c3F)c2cc1OCCON1CCN(C)CC1 [Compound 9] .
Response: 0.0442

Request: Give the measured fraction unbound at 6 h, 5 μM of COc1cc2ncnc(Nc3ccc(F)c(Cl)c3)c2cc1OCCON1CCOCC1 [Compound 6] .
Response: 0.0512

* * *

Experiment: Pharmacokinetic study
Type: in vivo, BALB/c nude mice
Conditions: female, BALB/c nude, plasma; Mouse 3 mg/kg (IV)
quantity: half-life at 24 h (min)
Form entry: value (min) — number only.

Request: Give the measured half-life at 24 h of "COc1cc2ncnc(Nc3cccc(Cl)c3F)c2cc1OCCON1CCN(C)CC1" .
Response: 100

* * *

Experiment: Pharmacokinetic study
Type: in vivo, Sprague-Dawley rats
Settings: male, Sprague-Dawley, plasma; Rat 20 mg/kg (PO)
Procedure: Animal experiments were performed at Pharmaron, Inc. and animal use was approved by Pharmaron’s Institutional Animal Care and Use Committee (IACUC) in Pharmaron (Pharmaron IACUC, Protocol #PK-M-07182022, #PK-R-06012022, and #ON-CELL-XEN-06012022) following the guidance of AAALAC. […]
quantity: Tmax at 24 h (h)
Form entry: value (h) — number only.

Request: Give the measured Tmax at 24 h of "COc1cc2ncnc(Nc3cccc(Cl)c3F)c2cc1OCCON1CCN(C)CC1" .
Response: 2

* * *

Can you tell me fraction unbound at 6 h, 5 μM for the items I'm about to list?
Assay: Plasma protein binding by equilibrium dialysis
Type: in vitro ADME
Settings: human, human plasma; read-out: fu,plasma% / %Unbound (converted)

Request: Give the measured fraction unbound at 6 h, 5 μM of "COc1cc2ncnc(Nc3ccc(F)c(Cl)c3)c2cc1OCCON1CCOCC1" .
Response: 0.0512

Request: Give the measured fraction unbound at 6 h, 5 μM of COc1cc2ncnc(Nc3ccc(F)c(Cl)c3)c2cc1OCCCN1CCOCC1 [Gefitinib (1), Gefitinib, reference compound] .
Response: 0.0766

Request: Give the measured fraction unbound at 6 h, 5 μM of "COc1cc2ncnc(Nc3cccc(Cl)c3F)c2cc1OCCON1CCOCC1" .
Response: 0.0412

Request: Give the measured fraction unbound at 6 h, 5 μM of "COc1cc2ncnc(Nc3cccc(Cl)c3F)c2cc1OCCON1CCN(C)CC1" .
Response: 0.0442

* * *

Can you tell me Remaining Percentages for the items I'm about to list?
Assay: Plasma stability
Assay type: in vitro ADME, human
Conditions: human plasma, 60 min
Method: Assessment of compounds to determine stability in incubations containing plasma of human (Pharmaron) and Sprague-Dawley rat (IPHASE) was performed by Pharmaron, Inc. using the compound […] approach. Compounds were assessed in duplicate (n = 2) and incubated in plasma at 5 μM and samples (50 μL) were taken at 0, 15, 30, 60, and 120 min time points for analysis by LC-MS/MS. […]
Form entry: value (%) — number only.

Request: Give the measured Remaining Percentages of COc1cc2ncnc(Nc3ccc(F)c(Cl)c3)c2cc1OCCCN1CCOCC1 [Gefitinib (1), Gefitinib, reference compound] .
Response: 101.33

Request: Give the measured Remaining Percentages of CC(C)[N+](C)(CCOC(=O)C1c2ccccc2Oc2ccccc21)C(C)C [Propantheline, reference compound] .
Response: 22.07

Request: Give the measured Remaining Percentages of "COc1cc2ncnc(Nc3cccc(Cl)c3F)c2cc1OCCON1CCOCC1" .
Response: 100.91

Request: Give the measured Remaining Percentages of "COc1cc2ncnc(Nc3ccc(F)c(Cl)c3)c2cc1OCCON1CCOCC1" .
Response: 101.74

Request: Give the measured Remaining Percentages of "COc1cc2ncnc(Nc3cccc(Cl)c3F)c2cc1OCCON1CCN(C)CC1" .
Response: 97.47
